tested target: recombinant soluble homotrimeric HA of A/Anhui/1/05 (H5N1) (Influenza A virus A/Anhui/1/2005(H5N1))
run description: trimeric HA microarray, transfection supernatant set 2
condition summary: remark: other sources report otherwise
parameter: Trimeric HA Binding: RLU (RLU)
Use RLU as the unit, but write only the number.

Sample TCN-563 (5237_B21) (antibody, V domains shown) VH: QVQLAQSGAEVKRPGSSVKVSCTASGGIFRKNAISWVRQAPGQGLEWMGGIIAVFNTANYAQKFQGRVKITADESGNTAYMELSSLRSDDTAVYYCASHPKYFYGSGSYPDFWGQGTLVTVSS VL: QSALTQPRSVSGSPGQSVTISCTGSSSDVGASNSVSWYQQHPGKAPKLVIYDVTERPSGVPHRFSGSKSGNTASLTVSGLQPEDEADYFCCAYGGKYLVVFGGGTKVTVL ; Trimeric HA Binding: RLU observed: 1570
